B1: Caulobacter ParB omega fusion; a variant is named by its letters at X, in order, B8GW30 (parent)
chain: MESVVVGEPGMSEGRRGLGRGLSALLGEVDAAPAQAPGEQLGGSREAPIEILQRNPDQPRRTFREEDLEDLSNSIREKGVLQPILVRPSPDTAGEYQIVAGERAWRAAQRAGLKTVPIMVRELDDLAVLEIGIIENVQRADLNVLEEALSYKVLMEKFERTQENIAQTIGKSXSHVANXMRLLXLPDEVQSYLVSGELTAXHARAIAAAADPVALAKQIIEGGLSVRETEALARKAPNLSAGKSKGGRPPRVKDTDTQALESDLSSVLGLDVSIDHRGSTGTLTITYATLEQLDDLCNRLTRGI

Variants of: B1
Experiment: one-hybrid fitness for binding parS DNA (scaled: cognate 1, non-cognate 0); higher = stronger binding
Settings: with parS DNA site
Over roughly 81,000 sequences, “one-hybrid fitness for binding parS DNA” has its median near -0.17; the highest 2% begin near 0.51. This excerpt belongs to a sample that is enriched for the highest values.
ENDPOINT NAME: one-hybrid fitness for binding parS DNA

- VARIANT: "VPQV"
  INEQUALITY SIGN: "≤"
  VALUE OBSERVED: 0.2
- VARIANT: "RELG"
  INEQUALITY SIGN: "="
  VALUE OBSERVED: 0.217
- VARIANT: "MYPT"
  INEQUALITY SIGN: "≤"
  VALUE OBSERVED: 0.2
- VARIANT: "WEWS"
  INEQUALITY SIGN: "≤"
  VALUE OBSERVED: 0.2
- VARIANT: "RHAM"
  INEQUALITY SIGN: "="
  VALUE OBSERVED: 0.28
- VARIANT: "RHFT"
  INEQUALITY SIGN: "="
  VALUE OBSERVED: 0.707
- VARIANT: "RSLF"
  INEQUALITY SIGN: "="
  VALUE OBSERVED: 0.228
- VARIANT: "RHAT"
  INEQUALITY SIGN: "="
  VALUE OBSERVED: 0.865
- VARIANT: "RLLR"
  INEQUALITY SIGN: "≤"
  VALUE OBSERVED: 0.2
- VARIANT: "RCLG"
  INEQUALITY SIGN: "="
  VALUE OBSERVED: 1.01
- VARIANT: "RMLM"
  INEQUALITY SIGN: "="
  VALUE OBSERVED: 0.363
